target: M2 (Homo sapiens); assay: In vitro functional assay of muscarinic acetylcholine receptor activity, M2; settings: antagonist activity; M2 method not separately described
Sequence (P08172 whole entry): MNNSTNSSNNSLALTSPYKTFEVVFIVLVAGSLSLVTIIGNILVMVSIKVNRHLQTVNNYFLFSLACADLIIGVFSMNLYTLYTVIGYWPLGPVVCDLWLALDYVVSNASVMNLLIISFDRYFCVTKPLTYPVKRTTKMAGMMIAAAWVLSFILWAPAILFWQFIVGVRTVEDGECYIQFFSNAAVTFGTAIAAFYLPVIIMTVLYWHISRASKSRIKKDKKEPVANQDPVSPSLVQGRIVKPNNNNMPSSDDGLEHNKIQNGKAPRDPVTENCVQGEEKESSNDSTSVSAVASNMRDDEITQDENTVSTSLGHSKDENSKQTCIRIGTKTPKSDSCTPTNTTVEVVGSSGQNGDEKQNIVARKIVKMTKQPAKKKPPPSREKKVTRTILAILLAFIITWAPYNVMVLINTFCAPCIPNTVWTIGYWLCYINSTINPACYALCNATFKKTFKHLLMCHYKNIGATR
pIC50: −log10 of the molar value.
Entries and their measured pIC50 follow.

Recorded results for 4 compounds are shown here.
INSERT INTO assay_data (compound, observed_value) VALUES
  ('N#Cc1ccc(N2CCN3C(=O)[C@@H](CCCc4cccn5ncnc45)C[C@H]3C2)nc1 [Example 68]', '6.00 to 7.00'),
  ('COCc1ccc(N2CCN3C(=O)[C@@H](CCCc4cccc5ncnn45)C[C@H]3C2)nc1 [Example 49]', '5.00 to 6.00'),
  ('N#Cc1ccc(N2CCN3C(=O)[C@@H](CCCc4cccn5ncnc45)C[C@H]3C2)cn1 [Example 67]', '6.00 to 7.00'),
  ('N#Cc1ccc(N2CCN3C(=O)[C@@H](CCCc4cccc5nnnn45)C[C@H]3C2)nc1 [Example 17]', '5.00 to 6.00');

Which pIC50 value belongs to O=C1[C@@H](CCCc2cccn3ncnc23)C[C@H]2CN(c3ccc(F)cn3)CCN12 [Example 62] ? 5.00 to 6.00

Follow-up item: O=C1[C@@H](CCCc2cccc3ncnn23)C[C@H]2CN(c3ccc(C4CC4)cn3)CCN12 [Example 45] > 7.00

Moving on to O=C1[C@@H](CCCc2cccc3ncnn23)C[C@H]2CN(c3ccc(C(F)(F)F)cn3)CCN12 [Example 32] 6.00 to 7.00

* * *

target: UniProtKB P11229; assay: In vitro functional assay of muscarinic acetylcholine receptor activity (aequorin calcium flux, antagonist mode vs EC80 acetylcholine), M1; conditions: CHO-K1 cells stably expressing human M1 receptor with Aequorin; decrease in EC80 acetylcholine response
Sequence (P11229 whole entry): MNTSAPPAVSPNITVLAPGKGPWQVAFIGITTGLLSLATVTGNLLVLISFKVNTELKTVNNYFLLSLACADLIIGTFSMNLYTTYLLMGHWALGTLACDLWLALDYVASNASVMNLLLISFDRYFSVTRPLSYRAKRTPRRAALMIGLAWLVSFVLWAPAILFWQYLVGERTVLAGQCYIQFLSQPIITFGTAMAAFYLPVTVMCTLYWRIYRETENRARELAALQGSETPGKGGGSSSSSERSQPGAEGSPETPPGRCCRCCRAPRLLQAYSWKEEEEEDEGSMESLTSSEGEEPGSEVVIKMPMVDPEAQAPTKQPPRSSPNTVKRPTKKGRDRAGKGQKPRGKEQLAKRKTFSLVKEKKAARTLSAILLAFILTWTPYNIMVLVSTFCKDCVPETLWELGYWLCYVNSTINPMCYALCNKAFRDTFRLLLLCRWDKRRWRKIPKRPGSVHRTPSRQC
Measured IC50 accompanies every entry in the list below.

Field: example entries. Status: answers known.
INSERT INTO assay_data (compound, observed_value) VALUES
  ('N#Cc1ccc(N2CCN3C(=O)[C@@H](CCCc4cccc5ncoc45)C[C@H]3C2)nc1', '< 100 nM'),
  ('Cc1ncc(N2CCN3C(=O)C(CCCc4cccc5ncnn45)C[C@H]3C2)cc1F (mixture of isomers)', '1000 to 10000 nM'),
  ('O=C1[C@@H](CCCc2cccc3ncnn23)C[C@H]2CN(c3ccc(F)cc3)CCN12', '100 to 1000 nM'),
  ('N#Cc1ccc(N2CCN3C(=O)[C@@H](CCCc4cccn5nccc45)C[C@H]3C2)nc1', '< 100 nM');

Requested read-out: IC50. Entry: "O=C1[C@@H](CCCc2cccc3ncsc23)C[C@H]2CN(c3ccccn3)CCN12" 100 to 1000 nM

O=C1C(CCCc2cccc3ncnn23)C[C@H]2CN(c3cncc(Cl)c3)CCN12 (mixture of isomers) , same question. 1000 to 10000 nM

# repeat for "N#Cc1ccc(N2CCN3C(=O)[C@@H](CCCc4cccn5ncnc45)C[C@H]3C2)nc1" < 100 nM

Same thing, different compound: "Cc1nccnc1CCC[C@H]1C[C@H]2CN(c3ccc(C#N)cn3)CCN2C1=O" 1000 to 10000 nM

* * *

target: M3 (Homo sapiens, UniProt P20309); assay: In vitro functional assay of muscarinic acetylcholine receptor activity, M3; conditions: antagonist activity; M3 method not separately described
Sequence (P20309 whole entry): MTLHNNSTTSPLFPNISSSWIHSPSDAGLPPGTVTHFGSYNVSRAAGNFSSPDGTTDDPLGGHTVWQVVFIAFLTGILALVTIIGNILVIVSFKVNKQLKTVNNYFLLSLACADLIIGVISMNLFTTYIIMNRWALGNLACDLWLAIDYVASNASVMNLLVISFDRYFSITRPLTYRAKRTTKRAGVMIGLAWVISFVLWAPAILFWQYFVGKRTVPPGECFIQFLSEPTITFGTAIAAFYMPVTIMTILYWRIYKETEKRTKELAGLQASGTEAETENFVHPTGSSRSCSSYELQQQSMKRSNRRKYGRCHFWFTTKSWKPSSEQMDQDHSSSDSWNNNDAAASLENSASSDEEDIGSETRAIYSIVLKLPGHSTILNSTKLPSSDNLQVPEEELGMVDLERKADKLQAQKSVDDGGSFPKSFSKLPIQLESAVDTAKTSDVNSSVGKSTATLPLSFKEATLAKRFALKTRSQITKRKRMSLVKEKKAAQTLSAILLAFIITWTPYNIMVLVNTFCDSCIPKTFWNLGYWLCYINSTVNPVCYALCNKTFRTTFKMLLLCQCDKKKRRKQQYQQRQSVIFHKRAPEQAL
observation-type: IC50

Sample answers from the record:
INSERT INTO results (compound, observation_type, observed_value) VALUES
  ('Cc1ccc(N2CCN3C(=O)[C@@H](CCCc4cccc5ncnn45)C[C@H]3C2)nn1 [Example 48]', 'IC50', '1 to 10 µM'),
  ('O=C1[C@@H](CCCc2cccc3ncsc23)C[C@H]2CN(c3ccnc(Cl)c3)CCN12 [Example 12]', 'IC50', '1 to 10 µM'),
  ('O=C1[C@@H](CCCc2cccc3ncsc23)C[C@@H]2CN(c3ccncc3F)CCN12 [Example 7]', 'IC50', '> 10 µM');

Item under review: N#Cc1ccc(N2CCN3C(=O)[C@@H](CCCc4cccc5c4CCC5)C[C@H]3C2)nc1 [Example 18] . Reported IC50? > 10 µM
